# ASSAY_REMARKS: Probe fluorescence ratio response to arachidonic acid relative to ADIFAB2
# Assay type: binding
# ASSAY_CONDITIONS: arachidonic acid; response relative to ADIFAB2
PROPERTY_MEASURED: DR/DR AA
Give the value as a plain number.

Q) If you can, please state the reported DR/DR AA value of 106D3, 72A (protein, listed as Rattus norvegicus, PEPTIDE (1)...(131) wild-type rat intestinal fatty acid binding protein) AFDGTWKVDRNENYEKFMEKMGINVVKRKLGAHDNLKLTITQEGNKFTVKESSNFRNIDVVFELGVDFAYSAADGTELTGTWTMEGNKLVGKFKRVDNGKELIAVDEISGNELIQTYTYEGVEAKRIFKKE .
A) 0.66

Q) State the recorded DR/DR AA for this entry: 23R3, 72A (protein, listed as Rattus norvegicus, PEPTIDE (1)...(131) wild-type rat intestinal fatty acid binding protein) AFDGTWKVDRNENYEKFMEKMGRNVVKRKLGAHDNLKLTITQEGNKFTVKESSNFRNIDVVFELGVDFAYSAADGTELTGTWTMEGNKLVGKFKRVDNGKELIAVREISGNELIQTYTYEGVEAKRIFKKE
A) 0.14

Q) Any idea what its DR/DR AA is? The molecule is 18I 31L 73L 72A (protein, listed as Rattus norvegicus, PEPTIDE (1)...(131) wild-type rat intestinal fatty acid binding protein) AFDGTWKVDRNENYEKFIEKMGINVVKRKLLAHDNLKLTITQEGNKFTVKESSNFRNIDVVFELGVDFAYSALDGTELTGTWTMEGNKLVGKFKRVDNGKELIAVREISGNELIQTYTYEGVEAKRIFKKE
A) 0.626

Q) Which value of DR/DR AA has been reported for 23N1, 72A (protein, listed as Rattus norvegicus, PEPTIDE (1)...(131) wild-type rat intestinal fatty acid binding protein) AFDGTWKVDRNENYEKFMEKMGNNVVKRKLGAHDNLKLTITQEGNKFTVKESSNFRNIDVVFELGVDFAYSAADGTELTGTWTMEGNKLVGKFKRVDNGKELIAVREISGNELIQTYTYEGVEAKRIFKKE in the records?
A) 0.12

Q) Give the measured DR/DR AA of 115V2, 72A (protein, listed as Rattus norvegicus, PEPTIDE (1)...(131) wild-type rat intestinal fatty acid binding protein) AFDGTWKVDRNENYEKFMEKMGINVVKRKLGAHDNLKLTITQEGNKFTVKESSNFRNIDVVFELGVDFAYSAADGTELTGTWTMEGNKLVGKFKRVDNGKELIAVREISGNELIVTYTYEGVEAKRIFKKE .
A) 0.84

Q) Need DR/DR AA, item 36S, 72A (protein, listed as Rattus norvegicus, PEPTIDE (1)...(131) wild-type rat intestinal fatty acid binding protein) AFDGTWKVDRNENYEKFMEKMGINVVKRKLGAHDNSKLTITQEGNKFTVKESSNFRNIDVVFELGVDFAYSAADGTELTGTWTMEGNKLVGKFKRVDNGKELIAVREISGNELIQTYTYEGVEAKRIFKKE
A) 0.49

Q) What does the record list as DR/DR AA for 14N, 72A (protein, listed as Rattus norvegicus, PEPTIDE (1)...(131) wild-type rat intestinal fatty acid binding protein) AFDGTWKVDRNENNEKFMEKMGINVVKRKLGAHDNLKLTITQEGNKFTVKESSNFRNIDVVFELGVDFAYSAADGTELTGTWTMEGNKLVGKFKRVDNGKELIAVREISGNELIQTYTYEGVEAKRIFKKE ?
A) 0.42

Q) If you can, please state the reported DR/DR AA value of 18G 31W 73V 72A (protein, listed as Rattus norvegicus, PEPTIDE (1)...(131) wild-type rat intestinal fatty acid binding protein) AFDGTWKVDRNENYEKFGEKMGINVVKRKLWAHDNLKLTITQEGNKFTVKESSNFRNIDVVFELGVDFAYSAVDGTELTGTWTMEGNKLVGKFKRVDNGKELIAVREISGNELIQTYTYEGVEAKRIFKKE .
A) 0.774

Q) Would you mind telling me what DR/DR AA value was observed for 115N2, 72A (protein, listed as Rattus norvegicus, PEPTIDE (1)...(131) wild-type rat intestinal fatty acid binding protein) AFDGTWKVDRNENYEKFMEKMGINVVKRKLGAHDNLKLTITQEGNKFTVKESSNFRNIDVVFELGVDFAYSAADGTELTGTWTMEGNKLVGKFKRVDNGKELIAVREISGNELINTYTYEGVEAKRIFKKE ?
A) 0.92

Q) Item under review: 106D, 72A (protein, listed as Rattus norvegicus, PEPTIDE (1)...(131) wild-type rat intestinal fatty acid binding protein) AFDGTWKVDRNENYEKFMEKMGINVVKRKLGAHDNLKLTITQEGNKFTVKESSNFRNIDVVFELGVDFAYSAADGTELTGTWTMEGNKLVGKFKRVDNGKELIAVDEISGNELIQTYTYEGVEAKRIFKKE . Reported DR/DR AA?
A) 0.502

Turning now to a further record.
Q) Could you share which DR/DR AA value was measured for 14L 18L 73L 117A 72A (protein, listed as Rattus norvegicus, PEPTIDE (1)...(131) wild-type rat intestinal fatty acid binding protein) AFDGTWKVDRNENLEKFLEKMGINVVKRKLGAHDNLKLTITQEGNKFTVKESSNFRNIDVVFELGVDFAYSALDGTELTGTWTMEGNKLVGKFKRVDNGKELIAVREISGNELIQTATYEGVEAKRIFKKE ?
A) 0.905
